# system.under.test: T1, Human MCSP D3 (human, UniProt Q6UVK1 1582-2224)
# T1 construct: Soluble analyte in SPR; The selection antigen was hu-MCSP(D3 domain)-avi-his; also called hu-MCSP(D3 domain)-avi-his
# T1 sequence: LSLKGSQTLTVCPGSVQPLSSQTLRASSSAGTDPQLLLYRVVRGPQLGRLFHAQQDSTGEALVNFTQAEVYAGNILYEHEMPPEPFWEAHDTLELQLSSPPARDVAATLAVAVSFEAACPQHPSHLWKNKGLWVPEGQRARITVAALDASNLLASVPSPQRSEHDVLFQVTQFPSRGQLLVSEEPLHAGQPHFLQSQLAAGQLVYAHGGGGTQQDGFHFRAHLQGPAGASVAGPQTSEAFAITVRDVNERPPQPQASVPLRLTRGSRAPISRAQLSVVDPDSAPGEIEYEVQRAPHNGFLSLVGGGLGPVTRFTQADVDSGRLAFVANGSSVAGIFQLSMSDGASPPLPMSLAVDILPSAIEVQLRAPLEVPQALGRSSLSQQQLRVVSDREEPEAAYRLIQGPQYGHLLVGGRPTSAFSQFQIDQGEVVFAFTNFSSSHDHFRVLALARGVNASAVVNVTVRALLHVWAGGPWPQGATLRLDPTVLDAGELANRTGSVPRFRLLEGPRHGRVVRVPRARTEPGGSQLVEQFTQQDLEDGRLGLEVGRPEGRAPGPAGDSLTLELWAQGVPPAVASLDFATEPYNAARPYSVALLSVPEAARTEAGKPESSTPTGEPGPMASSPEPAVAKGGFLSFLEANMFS
# measurement.notes: SPR Biacore T200, 25 C, IgG captured on anti-human Fab, MCSP D3 as analyte, 1:1 Langmuir fit
experimental.endpoint: pKd
Please note pKd is a logarithmic value: minus log10 of concentration in mol/L. Answer with that number alone.

Here's what some known entries look like.
>  <binder>
M4-3 (C1) ML2 (antibody, human IgG1, V domains shown) VH: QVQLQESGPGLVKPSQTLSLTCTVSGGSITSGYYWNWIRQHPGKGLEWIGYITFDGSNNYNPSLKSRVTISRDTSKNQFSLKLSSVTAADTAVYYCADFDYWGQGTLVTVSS VL: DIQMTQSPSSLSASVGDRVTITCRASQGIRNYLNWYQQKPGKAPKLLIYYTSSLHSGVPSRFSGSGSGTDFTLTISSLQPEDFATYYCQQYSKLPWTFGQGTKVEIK

>  <pKd>
8.14

$$$$
>  <binder>
M4-3 ML2 (parental) (antibody, human IgG1, kappa, V domains shown, Non-matured parental humanized IgG; also called humanized antibody M4-3 ML2) VH: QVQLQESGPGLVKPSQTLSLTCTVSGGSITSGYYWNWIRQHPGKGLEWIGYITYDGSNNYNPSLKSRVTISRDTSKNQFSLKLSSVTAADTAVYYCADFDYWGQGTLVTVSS VL: DIQMTQSPSSLSASVGDRVTITCRASQGIRNYLNWYQQKPGKAPKLLIYYTSSLHSGVPSRFSGSGSGTDFTLTISSLQPEDFATYYCQQYSKLPWTFGQGTKVEIKR

>  <pKd>
7.62

$$$$

Give the measured pKd of M4-3 (C1) ML2 (G3) (antibody, human IgG1, kappa, V domains shown) VH: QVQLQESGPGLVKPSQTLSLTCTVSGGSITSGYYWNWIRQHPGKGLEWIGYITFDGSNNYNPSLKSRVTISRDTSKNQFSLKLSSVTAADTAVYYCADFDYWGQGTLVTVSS VL: DIQMTQSPSSLSASVGDRVTITCRASQGIRNYLNWYQQKPGKAPKLLIYYTSSLHSGVPSRFSGSGSGTDYTLTISSLQPEDFATYYCQQYSALPWTFGQGTKVEIKR .
8.80
